# measurement-notes: Tissue distribution of 18F imaging agents in rats
# Type: in vivo, Male Sprague Dawley rats
# condition: rat, iv tail vein ~15 μCi, 60 min post injection, ± SEM
readout-kind: Blood, imaging agent distribution at 60 min (% ID/g)

See these solved cases before continuing.
{"columns": ["compound", "measured"],
 "data": [
  ["CC(C)(C)n1ncc(OCc2ccc(C(=O)OCCF)cc2)c(Cl)c1=O [Example 67J]", 0.58],
  ["CC(OCCF)c1ccc(COc2cnn(C(C)(C)C)c(=O)c2Cl)cc1 (centres unmarked) [Example 67G]", 0.47],
  ["CC(C)n1ncc(OCc2ccc(COCCF)cc2)c(Cl)c1=O [Example 67H]", 0.55]
]}

[1] CC(C)(C)n1ncc(OCc2cccc(OCCF)c2)c(Cl)c1=O [Example 67F]
[2] CC(C)(C)n1ncc(OCc2cccc(COCCF)c2)c(Cl)c1=O [Example 67A]
Query :: Min Blood, imaging agent distribution at 60 min? 1 | 2 Reply briefly: the label of your chosen item.
Result :: 2
(2: 0.11 % ID/g, 1: 0.48 % ID/g)
